# credit: the domain aggregation screens of Martell et al. (2025)

- experiment: soluble fraction after stress (log2 fold change); higher = more stays soluble; pooled small domains, quantitative proteomics
- settings: stress: 50 degC
Class definitions on soluble fraction (log2): A (below -0.9), B (-0.9 to below -0.1), C (-0.1 or more)

Reference set (10 entries):
{"polymer.sequence": "HMESWEDSNIANEFKSTIKIAEKRLAEGGDHPELLEKLEALKQAIINENQTEASKLDDQVNDILFDMDD", "class.name": "C"}
{"polymer.sequence": "HMNNQMTFSKFLNEVDAGRVVEVEIQGNNIKGVLADGNRFNTFSPNYPNLVEKLSDKGVSITAAPK", "class.name": "C"}
{"polymer.sequence": "HMDKLSYALGLSMGHNFLGSGIKSLNVEDFAKGVEAVYKQEKPEISFDEAKKIINEFFSNLQDEIAE", "class.name": "B"}
{"polymer.sequence": "HMLPDVSITGHIFIRSGSRLNRIFVGESTYHVGDMLDGKWLIESINSDSLELRSGTQTTELPL", "class.name": "A"}
{"polymer.sequence": "HMGESVVVPDLRGKTLEEARAILKKVDLDYEINDSTYSKTAVPGTIRDIVPAPGSHVKAGRILFVSING", "class.name": "B"}
{"polymer.sequence": "HMRISLKAQVYEYLKQAIINGDLKVGEIYSEQYFADKLSISRTPVREAILQLQHENMVEVKANRGIIVK", "class.name": "B"}
{"polymer.sequence": "HMDEALLRATLLDVLVKHHPKIGDKLDVVFALAKAWVSSGSDDDFEVLEKYMERLKPDEALMLASGFSNML", "class.name": "A"}
{"polymer.sequence": "HMTHHGHSIKRIRDMLGIKQETLAAELNMTQQAFSKLEQKEQIEDEMLDKIAKILHVSTEALKT", "class.name": "C"}
{"polymer.sequence": "HMKTRYPNVYQDEKGKFFYQIFIGTDTNGRKKLKKGRRDALGHPFSSAYQASKEAKRVQALYANVS", "class.name": "A"}
{"polymer.sequence": "HMPRPRIHSVVRGDTLYGISRQYGVAMSKLASLNGLKSPYRIMVGRSLRLPSAIEAERDRTAREVVQ", "class.name": "A"}

query: Classify this sequence: "HMFLDKDTLNQLYRFGIALTGNEQDSQDVLHTAIERFLRNKPQQINQQAAYIRTIMRNYWYDELRKLKTQ"
result: A

query: Classify this sequence: "HMFSQDQIFLRSGEKIDARVIEVTPEFIKYKSKANPEGPLYSKKITDVLLITYANGTTEVYE"
result: C

====

- experiment: soluble fraction after stress (log2 fold change); higher = more stays soluble; pooled small domains, quantitative proteomics
- settings: stress: 50 degC
Quick list: soluble fraction (log2) per entry.
Number, no unit, nothing else.

See these solved cases before continuing.
{"polymer.sequence": "HMSLHSITIPQEFIGAVIGPGGKVIQEIQKQTGTTITITEKDNKGYVDIFGEDKGALDSALARIKEIVAIP", "metric.name": "soluble fraction (log2)", "measured.value": 0.182}
{"polymer.sequence": "HMRTGLSGMIGEIGIVKQAIDPEGKVAVHGELWKARADVALAAGQTVRVVAVDGLTMTVEATDSK", "metric.name": "soluble fraction (log2)", "measured.value": -0.0264}
{"polymer.sequence": "HMIQHFARKRRQLELAVQRLSGRMAETNGQVTADMQRLIQQVKALVAELSHVFSRAYLRRVLGGVALVIGS", "metric.name": "soluble fraction (log2)", "measured.value": -0.104}
{"polymer.sequence": "HMFHDPTMEETLINLKGITNEVLSLLSSSKIKKLEDLAEMSVPELRDIVENISDEEASALIMEARKPWF", "metric.name": "soluble fraction (log2)", "measured.value": -0.446}
{"polymer.sequence": "HMGTYTSALDGIKGLGKKRKMLLLNTYKSIDVLKSVPLTELSQLIPREVAEALLTKLNRVDD", "metric.name": "soluble fraction (log2)", "measured.value": -0.118}

query: Entry under review: "HMDVLSPEEWIEFRTAYNNNRYISQYGSKGATIEDDYATRLAMIGGKESYYFLNDPRWTEPGYGNLK" . Reported soluble fraction (log2)?
result: -0.437

query: Entry under review: "HMTETEIVIGGKYRHYKGGEYELVSIVKHSETLEELVIYKSLSTGEMWARPKSLFVGLVDGQPRYTL" . Reported soluble fraction (log2)?
result: -1.85

query: Entry under review: "HMTAQASDIEKVLQVIETLGFRGHTLPGENRTAIGVTGNRGSIDPAHFENLPGVADAIRVTKPY" . Reported soluble fraction (log2)?
result: 0.0639
